Target: CDK2 (Homo sapiens, UniProt P24941)
Construct: High-Throughput Measurement of Cellular Endogenous CDK2; endogenous in cells
Assay: Inhibition of CDK2: phospho-Rb (S807/811) HTRF measurement in OVCAR3 cells, 24 h
Conditions: 24 h compound treatment, read-out: pRB_OVCAR3_24h
pIC50: −log10 of the molar value.
Catalogue of compounds with associated pIC50

Some entries whose results are on file:
Cn1nc(N2CCC(=O)NC2=O)c2ccc(C3CCN(Cc4cccc(S(=O)(=O)N5CCC(Nc6ncc(OC(F)F)cn6)CC5)c4)CC3)cc21 : 7.00 to 9.00
Cn1nc(N2CCC(=O)NC2=O)c2ccc(N3CCN(CC4CCN(c5cccc(S(=O)(=O)N6CCC(Nc7ncc(C(F)(F)F)cn7)CC6)c5)CC4)CC3)cc21 : 5.60 to 6.30

stdin: What value of measured pIC50 is listed for `Cc1ncsc1-c1ccc([C@H](C)NC(=O)[C@@H]2C[C@@H](O)CN2C(=O)[C@H](NC(=O)C2CCN(Cc3cccc(S(=O)(=O)N4CCC(Nc5ncc(C(F)(F)F)cn5)CC4)c3)CC2)C(C)(C)C)cc1` ?
stdout: 6.30 to 7.00

stdin: What value of measured pIC50 is listed for `Cn1nc(N2CCC(=O)NC2=O)c2ccc(C3CCN(CC(C)(C)Cc4cccc(S(=O)(=O)N5CCC(Nc6ncc(Cl)cn6)CC5)c4)CC3)cc21` ?
stdout: 7.00 to 9.00

stdin: What value of measured pIC50 is listed for `Cn1nc(N2CCC(=O)NC2=O)c2ccc(C3CCN(CC4CCN(c5cccc(S(=O)(=O)[C@H]6CC[C@H](Nc7ncc(C(F)(F)F)cn7)CC6)c5)CC4)CC3)cc21` ?
stdout: < 5.60

stdin: What value of measured pIC50 is listed for `Cc1ncsc1-c1ccc([C@H](C)NC(=O)[C@@H]2C[C@@H](O)CN2C(=O)[C@@H](NC(=O)C2(F)CC2)C(C)(C)SCC2CCN(Cc3cccc(S(=O)(=O)N4CCC(Nc5ncc(C(F)(F)F)cn5)CC4)c3)CC2)cc1` ?
stdout: 6.30 to 7.00

stdin: What value of measured pIC50 is listed for `Cn1nc(N2CCC(=O)NC2=O)c2ccc(N3CC4CC(C3)N4CC3CCN(c4cccc(S(=O)(=O)N5CCC(Nc6ncc(Cl)cn6)CC5)c4)CC3)cc21` ?
stdout: 5.60 to 6.30

stdin: What value of measured pIC50 is listed for `Cn1nc(N2CCC(=O)NC2=O)c2ccc(C3CCN(CC4CN(c5cccc(S(=O)(=O)N6CCC(Nc7ncc(C(F)(F)F)cn7)CC6)c5)C4)CC3)cc21` ?
stdout: 7.00 to 9.00
